The measured values listed here are drawn from patent US20260297121A1.

test system: RDES; experiment: Cytotoxicity, resazurin fluorescence, RDES; format: cell-based; details: RD-ES; Table 6; 72 hr; EWS cells
# GI50 listing for each entry below
assay-readout: GI50 (µM)

INSERT INTO assay_data (compound, reported_measurement) VALUES
  ('COC(C(=NOCCNC(=O)c1[nH]c2ccc(Cl)cc2c1-c1c(C)noc1C)C(O)C(C)O)C1Cc2cc3cc(OC4CC(OC5CC(O)C(O)C(C)O5)C(O)C(C)O4)c(C)c(O)c3c(O)c2C(=O)C1OC1CC(OC2CC(OC3CC(C)(O)C(O)C(C)O3)C(O)C(C)O2)C(O)C(C)O1 (centres unmarked)', 0.0133),
  ('COC(C(=NOCCNC(=O)c1cc2cc(Br)ccc2[nH]1)C(O)C(C)O)C1Cc2cc3cc(OC4CC(OC5CC(O)C(O)C(C)O5)C(O)C(C)O4)c(C)c(O)c3c(O)c2C(=O)C1OC1CC(OC2CC(OC3CC(C)(O)C(O)C(C)O3)C(O)C(C)O2)C(O)C(C)O1 (centres unmarked)', 0.0291),
  ('COC(C(=NOCc1cc2ccccc2[nH]1)C(O)C(C)O)C1Cc2cc3cc(OC4CC(OC5CC(O)C(O)C(C)O5)C(O)C(C)O4)c(C)c(O)c3c(O)c2C(=O)C1OC1CC(OC2CC(OC3CC(C)(O)C(O)C(C)O3)C(O)C(C)O2)C(O)C(C)O1 (centres unmarked)', 0.0168),
  ('CO[C@H](C(=NOCCNC(=O)c1cc2cc(F)ccc2[nH]1)[C@@H](O)[C@@H](C)O)[C@@H]1Cc2cc3cc(O[C@H]4C[C@@H](O[C@H]5C[C@@H](O)[C@H](O)[C@@H](C)O5)[C@H](O)[C@@H](C)O4)c(C)c(O)c3c(O)c2C(=O)[C@H]1O[C@H]1C[C@@H](O[C@H]2C[C@@H](O[C@H]3C[C@](C)(O)[C@H](O)[C@@H](C)O3)[C@@H](O)[C@@H](C)O2)[C@H](O)[C@@H](C)O1', 0.0329),
  ('CO[C@H](C(=NOCCNC(=O)c1cc2cc(OC(F)(F)F)ccc2[nH]1)[C@@H](O)[C@@H](C)O)[C@@H]1Cc2cc3cc(O[C@H]4C[C@@H](O[C@H]5C[C@@H](O)[C@H](O)[C@@H](C)O5)[C@H](O)[C@@H](C)O4)c(C)c(O)c3c(O)c2C(=O)[C@H]1O[C@H]1C[C@@H](O[C@H]2C[C@@H](O[C@H]3C[C@](C)(O)[C@H](O)[C@@H](C)O3)[C@@H](O)[C@@H](C)O2)[C@H](O)[C@@H](C)O1', 0.0327);

###

Below is a list of entries, each paired with its recorded IC50 value.
tested on: PC3; assay: IC50 in PC3 cells; assay type: cell-based; conditions: Homo sapiens, PC-3, read-out: IC50 PC2, Table 2; head prints PC2, text PC3
assay-readout: IC50

INSERT INTO assay_data (molecule, reported_measurement) VALUES
  ('CO[C@H](C(=NOCCNC(=O)c1cc2cc(F)ccc2[nH]1)[C@@H](O)[C@@H](C)O)[C@@H]1Cc2cc3cc(O[C@H]4C[C@@H](O[C@H]5C[C@@H](O)[C@H](O)[C@@H](C)O5)[C@H](O)[C@@H](C)O4)c(C)c(O)c3c(O)c2C(=O)[C@H]1O[C@H]1C[C@@H](O[C@H]2C[C@@H](O[C@H]3C[C@](C)(O)[C@H](O)[C@@H](C)O3)[C@@H](O)[C@@H](C)O2)[C@H](O)[C@@H](C)O1 [YL-B168]', '19.5 nM'),
  ('CO[C@H](C(=NOCCNC(=O)c1cc2cc(-c3cnn(C)c3)ccc2[nH]1)[C@@H](O)[C@@H](C)O)[C@@H]1Cc2cc3cc(O[C@H]4C[C@@H](O[C@H]5C[C@@H](O)[C@H](O)[C@@H](C)O5)[C@H](O)[C@@H](C)O4)c(C)c(O)c3c(O)c2C(=O)[C@H]1O[C@H]1C[C@@H](O[C@H]2C[C@@H](O[C@H]3C[C@](C)(O)[C@H](O)[C@@H](C)O3)[C@@H](O)[C@@H](C)O2)[C@H](O)[C@@H](C)O1 [YL-C20]', '1020 nM'),
  ('COC(C(=NOCCNC(=O)c1cc2cc(C(F)(F)F)ccc2[nH]1)C(O)C(C)O)C1Cc2cc3cc(OC4CC(OC5CC(O)C(O)C(C)O5)C(O)C(C)O4)c(C)c(O)c3c(O)c2C(=O)C1OC1CC(OC2CC(OC3CC(C)(O)C(O)C(C)O3)C(O)C(C)O2)C(O)C(C)O1 (stereo not drawn) [YL-B175]', '1.5 nM'),
  ('CO[C@H](C(=NOCCNC(=O)c1[nH]c2ccc(Cl)cc2c1C1CC1)[C@@H](O)[C@@H](C)O)[C@@H]1Cc2cc3cc(O[C@H]4C[C@@H](O[C@H]5C[C@@H](O)[C@H](O)[C@@H](C)O5)[C@H](O)[C@@H](C)O4)c(C)c(O)c3c(O)c2C(=O)[C@H]1O[C@H]1C[C@@H](O[C@H]2C[C@@H](O[C@H]3C[C@](C)(O)[C@H](O)[C@@H](C)O3)[C@@H](O)[C@@H](C)O2)[C@H](O)[C@@H](C)O1 [YL-C124]', '169 nM'),
  ('COC(C(=NOCCNC(=O)c1[nH]c2ccc(O)cc2c1-c1ccc(Cl)cc1)C(O)C(C)O)C1Cc2cc3cc(OC4CC(OC5CC(O)C(O)C(C)O5)C(O)C(C)O4)c(C)c(O)c3c(O)c2C(=O)C1OC1CC(OC2CC(OC3CC(C)(O)C(O)C(C)O3)C(O)C(C)O2)C(O)C(C)O1 (stereo not drawn) [YL-C120]', '31.4 nM'),
  ('COC(C(=NOCCNC(=O)c1[nH]c2ccc(Cl)cc2c1-c1c(C)noc1C)C(O)C(C)O)C1Cc2cc3cc(OC4CC(OC5CC(O)C(O)C(C)O5)C(O)C(C)O4)c(C)c(O)c3c(O)c2C(=O)C1OC1CC(OC2CC(OC3CC(C)(O)C(O)C(C)O3)C(O)C(C)O2)C(O)C(C)O1 (stereo not drawn) [YL-C110]', '7.1 nM'),
  ('CO[C@H](C(=NOCCNC(=O)c1[nH]c2ccc(F)cc2c1-c1ccc(Cl)cc1)[C@@H](O)[C@@H](C)O)[C@@H]1Cc2cc3cc(O[C@H]4C[C@@H](O[C@H]5C[C@@H](O)[C@H](O)[C@@H](C)O5)[C@H](O)[C@@H](C)O4)c(C)c(O)c3c(O)c2C(=O)[C@H]1O[C@H]1C[C@@H](O[C@H]2C[C@@H](O[C@H]3C[C@](C)(O)[C@H](O)[C@@H](C)O3)[C@@H](O)[C@@H](C)O2)[C@H](O)[C@@H](C)O1 [YL-C118]', '582 nM'),
  ('CO[C@H](C(=NOCCNC(=O)c1[nH]c2ccc(Cl)cc2c1-c1cncnc1)[C@@H](O)[C@@H](C)O)[C@@H]1Cc2cc3cc(O[C@H]4C[C@@H](O[C@H]5C[C@@H](O)[C@H](O)[C@@H](C)O5)[C@H](O)[C@@H](C)O4)c(C)c(O)c3c(O)c2C(=O)[C@H]1O[C@H]1C[C@@H](O[C@H]2C[C@@H](O[C@H]3C[C@](C)(O)[C@H](O)[C@@H](C)O3)[C@@H](O)[C@@H](C)O2)[C@H](O)[C@@H](C)O1 [YL-C122]', '124 nM'),
  ('COC(C(=NOCCNC(=O)c1cc2cc(O)ccc2[nH]1)C(O)C(C)O)C1Cc2cc3cc(OC4CC(OC5CC(O)C(O)C(C)O5)C(O)C(C)O4)c(C)c(O)c3c(O)c2C(=O)C1OC1CC(OC2CC(OC3CC(C)(O)C(O)C(C)O3)C(O)C(C)O2)C(O)C(C)O1 (stereo not drawn) [YL-B170]', '365 nM'),
  ('COC(C(=NOCCNC(=O)c1[nH]c2ccc(Cl)cc2c1-c1ccnn1C)C(O)C(C)O)C1Cc2cc3cc(OC4CC(OC5CC(O)C(O)C(C)O5)C(O)C(C)O4)c(C)c(O)c3c(O)c2C(=O)C1OC1CC(OC2CC(OC3CC(C)(O)C(O)C(C)O3)C(O)C(C)O2)C(O)C(C)O1 (stereo not drawn) [YL-C104]', '23 nM'),
  ('COC(C(=NOCCNC(=O)c1[nH]c2ccc(Cl)cc2c1-c1ccccc1)C(O)C(C)O)C1Cc2cc3cc(OC4CC(OC5CC(O)C(O)C(C)O5)C(O)C(C)O4)c(C)c(O)c3c(O)c2C(=O)C1OC1CC(OC2CC(OC3CC(C)(O)C(O)C(C)O3)C(O)C(C)O2)C(O)C(C)O1 (stereo not drawn) [YL-B176]', '178 nM'),
  ('COC(C(=NOCc1cc2ccccc2[nH]1)C(O)C(C)O)C1Cc2cc3cc(OC4CC(OC5CC(O)C(O)C(C)O5)C(O)C(C)O4)c(C)c(O)c3c(O)c2C(=O)C1OC1CC(OC2CC(OC3CC(C)(O)C(O)C(C)O3)C(O)C(C)O2)C(O)C(C)O1 (stereo not drawn) [YL-C09]', '5.65 nM');
